Tested on: Saccharomyces cerevisiae;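 note: PSI is a weighted mean of sequencing reads over stability bins, variants kept only with over 10 reads, mCherry proximal and sfGFP distal, peptide attached via GGGS linker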
Test: protein stability index of tFT-peptide fusion (C-terminal peptide) (PSI (0-1 scale)); higher = more stable (slower turnover)
Details: genetic background: wild type; temperature: 30 C
Readout Kind: protein stability index

Below, each entry is followed by its recorded protein stability index result.
Record Sequence	Target System	protein stability index
SGSVRSCSNTCL	Saccharomyces cerevisiae	0.694
GFFRGMLEGINA	Saccharomyces cerevisiae	0.726
SPPLPPPVPTAP	Saccharomyces cerevisiae	0.709
VFRFRARRYNES	Saccharomyces cerevisiae	0.655
SNFKKRKERFGR	Saccharomyces cerevisiae	0.705
SFLLVWCLLPEI	Saccharomyces cerevisiae	0.415
GCAVLGCLVLSA	Saccharomyces cerevisiae	0.655
FFEVFDNYRSLV	Saccharomyces cerevisiae	0.684

For each of the items listed, what is its protein stability index?
1. PLPSLPPPPPPL
2. SCLATDSWLAFV
3. PTTAPPIPLPSP
4. PFPRPWRPLPTS
5. SFFFTLLICFLF

OUTPUT:
0.661
0.665
0.72
0.7
0.253

Here are 7 sequences. What values of protein stability index were reported for them?
1. GLLQRCGAWRGS
2. WKCHRTDSRKRW
3. GRVRAKTETSNS
4. CAQLVLDNHTGP
5. CFPRVLFPVAAP
6. VFVLEGSSTPRS
7. VYHQLNDRLSLG

OUTPUT:
0.656
0.726
0.669
0.69
0.608
0.649
0.704
